Tested on: U87MG pLVX-IDH2 R140Q-neo cells
measurementProtocol: U87MG pLVX-IDH2 R140Q-neo cell based assay, 2-HG by LC-MS
recordedConditions: Homo sapiens, U-87 MG
pIC50: −log10 of the molar value.

# compound, pIC50
measured = [
    ("FC1(F)CCC(Nc2nc(NC3Cc4ccc(Cl)cc4C3)nc(-c3cccc(C(F)(F)F)n3)n2)C1 (stereo not shown) [Compound 182]", "> 7.30"),
    ("FC1(F)CCC(Nc2nc(NC3CCC(F)(F)CC3)nc(-n3cc(Cl)cn3)n2)CC1 [Compound 302]", "6.00 to 7.00"),
    ("N#CC1(c2cc(Nc3nc(N[C@@H]4CCC(F)(F)C4)nc(-c4nccc(C(F)(F)F)n4)n3)ccn2)CC1 [Compound 375]", "> 7.30"),
    ("Nc1ccc(F)c(-c2nc(Nc3cc(F)cc(F)c3)nc(NC3CCC(F)(F)CC3)n2)n1 [Compound 165]", "> 7.30"),
    ("Nc1ccc(F)c(-c2nc(Nc3cc(F)cc(F)c3)nc(NC3CCC(F)(F)C3)n2)n1 (stereo not shown) [Compound 153]", "> 7.30"),
    ("C[C@@H](Nc1nc(N[C@H](C)C2CC2)nc(-n2cc(I)cn2)n1)C1CC1 [Compound 279]", "6.00 to 7.00"),
    ("FC1(F)CC[C@H](Nc2nc(Nc3ccnc(C(F)(F)F)c3)nc(-c3cncc(C(F)(F)F)n3)n2)C1 [Compound 391]", "> 7.30"),
]
